Values compiled from patent US9957297B2.

TESTED_TARGET: T1, Formyl-Peptide Receptor 1 (UniProt P21462 1-350, limits assumed)
T1 sequence (looked up): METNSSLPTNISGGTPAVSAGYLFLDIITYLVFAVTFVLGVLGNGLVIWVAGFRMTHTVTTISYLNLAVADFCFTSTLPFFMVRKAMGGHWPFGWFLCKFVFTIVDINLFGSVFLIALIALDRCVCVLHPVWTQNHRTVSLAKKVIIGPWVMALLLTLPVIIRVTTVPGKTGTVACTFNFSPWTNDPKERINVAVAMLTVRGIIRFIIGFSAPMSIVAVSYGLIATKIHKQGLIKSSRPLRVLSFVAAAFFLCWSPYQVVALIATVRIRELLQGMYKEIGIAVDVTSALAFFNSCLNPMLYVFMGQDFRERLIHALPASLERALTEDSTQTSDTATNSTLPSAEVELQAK
TEST: cell-based or functional assay
Bridges are numbered along the chain shown (N, C = ends). [ ]: non-standard residue; d: D form.
Property: β-Arrestin IC50; scope: individual binders
Expressed in nM, but write only the number.

{"BINDER": "cyclo(YHKCHG[dP]WTICYET[dP]P) (disulfide 4-11; SMILES CC[C@H](C)[C@@H]1NC(=O)[C@H]([C@@H](C)O)NC(=O)[C@H](Cc2c[nH]c3ccccc23)NC(=O)[C@H]2CCCN2C(=O)CNC(=O)[C@H](Cc2c[nH]cn2)NC(=O)[C@@H]2CSSC[C@H](NC1=O)C(=O)N[C@@H](Cc1ccc(O)cc1)C(=O)N[C@@H](CCC(=O)O)C(=O)N[C@@H]([C@@H](C)O)C(=O)N1CCC[C@@H]1C(=O)N1CCC[C@H]1C(=O)N[C@@H](Cc1ccc(O)cc1)C(=O)N[C@@H](Cc1c[nH]cn1)C(=O)N[C@@H](CCCCN)C(=O)N2) [cyclo(-Tyr-His-Lys-Cys-His-Gly-^DPro-Trp-Thr-Ile-Cys-Tyr-Glu-Thr-^DPro-Pro-)]", "β-Arrestin IC50 / nM": 197}

Now examine the next entry.
Quickly give me recorded β-Arrestin IC50 for cyclo(HYACWG[dP]WTICYQK[dP]P) (disulfide 4-11; SMILES CC[C@H](C)[C@@H]1NC(=O)[C@H]([C@@H](C)O)NC(=O)[C@H](Cc2c[nH]c3ccccc23)NC(=O)[C@H]2CCCN2C(=O)CNC(=O)[C@H](Cc2c[nH]c3ccccc23)NC(=O)[C@@H]2CSSC[C@H](NC1=O)C(=O)N[C@@H](Cc1ccc(O)cc1)C(=O)N[C@@H](CCC(N)=O)C(=O)N[C@@H](CCCCN)C(=O)N1CCC[C@@H]1C(=O)N1CCC[C@H]1C(=O)N[C@@H](Cc1c[nH]cn1)C(=O)N[C@@H](Cc1ccc(O)cc1)C(=O)N[C@@H](C)C(=O)N2) [cyclo(-His-Tyr-Ala-Cys-Trp-Gly-^DPro-Trp-Thr-Ile-Cys-Tyr-Gln-Lys-^DPro-Pro-)]
735
